The reported measurements were obtained from patent US12497394B2.

- STUDY_SYSTEM: receptor tyrosine kinase AXL (Homo sapiens, UniProt P30530)
- Construct: 50 μL of AXL kinase domain recombinant protein diluted in reaction buffer was added to start the reaction; made in house; host or cells: insect cells (baculovirus expression system)
- Sequence (P30530 536-807 limits assumed): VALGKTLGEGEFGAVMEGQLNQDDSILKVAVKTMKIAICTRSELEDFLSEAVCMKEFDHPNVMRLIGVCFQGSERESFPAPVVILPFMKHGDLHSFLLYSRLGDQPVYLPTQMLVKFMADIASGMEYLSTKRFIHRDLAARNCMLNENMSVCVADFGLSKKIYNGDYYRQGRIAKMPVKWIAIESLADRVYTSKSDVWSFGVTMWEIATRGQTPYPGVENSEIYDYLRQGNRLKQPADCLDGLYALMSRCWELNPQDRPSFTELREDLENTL
- ASSAY_COMMENT: Enzyme activity of receptor tyrosine kinase AXL (ELISA)
- Type: biochemical
- MEASUREMENT_CONDITIONS: 1 nM; read-out: AXL activity Inhibitory rate(%)
OBSERVABLE: inhibition at 0.001 µM (%)
Numbers only; they are read as %.

Exercise: Note down inhibition at 0.001 µM recorded for `O=C(Nc1ccc(Oc2ncnc3cc4c(cc23)OCCOCCOCCO4)c(Cl)c1)c1c2n(n(-c3ccccc3)c1=O)CCCC2`
Key: 6.3

Exercise: Note down inhibition at 0.001 µM recorded for `COCCOc1cc2ncnc(Oc3ccc(NC(=O)c4c5n(n(-c6ccccc6)c4=O)CCCC5)cc3Cl)c2cc1OCCOC`
Key: 2.4

Exercise: Note down inhibition at 0.001 µM recorded for `COc1cc2ncnc(Oc3ccc(NC(=O)c4c5n(n(-c6cc(F)ccc6F)c4=O)CCCC5)cc3C(F)(F)F)c2cc1OC`
Key: 16.3

Exercise: Note down inhibition at 0.001 µM recorded for `COCCOc1cc2ncnc(Oc3ccc(NC(=O)c4c5n(n(-c6ccccc6F)c4=O)CCCC5)c(F)c3)c2cc1OCCOC`
Key: 16

Exercise: Note down inhibition at 0.001 µM recorded for `O=C(Nc1ccc(Oc2ncnc3cc4c(cc23)OCCOCCOCCO4)c(F)c1)c1c2n(n(-c3ccc(F)cc3)c1=O)CCCC2`
Key: 8.6

Exercise: Note down inhibition at 0.001 µM recorded for `COCCOc1cc2ncnc(Oc3ccc(NC(=O)c4c5n(n(-c6ccccc6)c4=O)CCCC5)cc3C(F)(F)F)c2cc1OCCOC`
Key: 34.8

Exercise: Note down inhibition at 0.001 µM recorded for `COCCOc1cc2ncnc(Oc3ccc(NC(=O)c4c5n(n(-c6cc(F)ccc6F)c4=O)CCCC5)cc3Cl)c2cc1OCCOC`
Key: 35.5

Exercise: Note down inhibition at 0.001 µM recorded for `COCCOc1cc2ncnc(Oc3ccc(NC(=O)c4c5n(n(-c6ccc(F)cc6)c4=O)CCCC5)cc3F)c2cc1OCCOC`
Key: 20.7

Exercise: Note down inhibition at 0.001 µM recorded for `COCCOc1cc2ncnc(Oc3ccc(NC(=O)c4c5n(n(-c6cc(F)ccc6F)c4=O)CCCC5)c(F)c3)c2cc1OCCOC`
Key: 12.2

Exercise: Note down inhibition at 0.001 µM recorded for `COCCOc1cc2ncnc(Oc3ccc(NC(=O)c4c5n(n(-c6ccccc6F)c4=O)CCCC5)cc3Cl)c2cc1OCCOC`
Key: 21.1

Exercise: Note down inhibition at 0.001 µM recorded for `COCCOc1cc2ncnc(Oc3ccc(NC(=O)c4c5n(n(-c6cc(F)ccc6F)c4=O)CCCC5)cc3F)c2cc1OCCOC`
Key: 29.9

Exercise: Note down inhibition at 0.001 µM recorded for `O=C(Nc1ccc(Oc2ncnc3cc4c(cc23)OCCOCCOCCO4)c(Cl)c1)c1c2n(n(-c3cc(F)ccc3F)c1=O)CCCC2`
Key: 30.8

Exercise: Note down inhibition at 0.001 µM recorded for `O=C(Nc1ccc(Oc2ncnc3cc4c(cc23)OCCOCCOCCO4)c(Cl)c1)c1c2n(n(-c3ccc(F)cc3)c1=O)CCCC2`
Key: 16.5

Exercise: Note down inhibition at 0.001 µM recorded for `COCCOc1cc2ncnc(Oc3ccc(NC(=O)c4c5n(n(-c6ccc(F)cc6)c4=O)CCCC5)c(F)c3)c2cc1OCCOC`
Key: 21.5
